Entry source: paper PMC6783924

Target: acid-sensing ion channel isoform 1a (ASIC1a) (Rattus norvegicus, UniProt P55926)
Sequence (P55926 1-526): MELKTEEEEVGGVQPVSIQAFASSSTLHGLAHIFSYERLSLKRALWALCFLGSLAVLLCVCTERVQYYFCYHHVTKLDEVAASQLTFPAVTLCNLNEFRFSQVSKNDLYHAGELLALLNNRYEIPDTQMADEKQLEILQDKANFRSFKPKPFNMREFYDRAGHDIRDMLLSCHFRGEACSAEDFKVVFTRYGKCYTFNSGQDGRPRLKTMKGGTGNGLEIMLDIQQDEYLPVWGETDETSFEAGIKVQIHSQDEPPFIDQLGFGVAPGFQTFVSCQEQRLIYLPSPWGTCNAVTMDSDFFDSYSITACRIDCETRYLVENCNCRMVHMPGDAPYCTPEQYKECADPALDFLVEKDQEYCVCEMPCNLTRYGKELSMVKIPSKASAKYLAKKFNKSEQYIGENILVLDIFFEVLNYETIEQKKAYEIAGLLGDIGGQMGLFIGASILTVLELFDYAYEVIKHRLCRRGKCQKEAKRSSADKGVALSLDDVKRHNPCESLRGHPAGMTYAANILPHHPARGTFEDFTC
Assay: two-electrode voltage clamp, Xenopus laevis oocytes expressing rat ASIC1a, pH […] stimulus from pH […]
Details: read-out: pH 6.85
MEASUREMENT LABEL: pIC50
Would you please state pIC50, meaning minus log10 of the concentration in mol/L, as a bare number?

The reported value for COc1cc2c(cc1O)C(Cc1ccc(O)c(Oc3ccc(C[C@@H]4NCCc5cc(OC)c(O)cc54)cc3)c1)NCC2 (stereo partly shown) [LIN, lindoldhamine] in terms of pIC50 is 5.05
